All figures here come from PubChem BioAssay.

Give inhibition for every item shown.
assay: inhibitors of PAF-induced NFkB signaling in CF airway cells, dose response, cell-based, uHTS hits, panel, cytotoxicity readout (AID 624344); settings: CF bronchial epithelial cells, PAF-induced NFkB reporter inhibition, with PAF, run 1; at 79 µM (top of the series) unless noted
Supply the numeric figure in %, leaving out any unit text.

Which inhibition reading was recorded for the molecule `COc1ccc(OC)c(-c2nnc3n2N=C(c2ccc(OC)c(OCC4CC4)c2)CS3)c1` ?
113

For `CCC1=Nc2cc(C(=O)NCc3ccco3)ccc2Sc2ccc(C)cc21` then?
99.5

For `COc1ccc(-c2csc3ncnc(NCCN4CCOCC4)c23)cc1` then?
112

For CC1Cc2ccccc2N1c1ncnc2nc[nH]c12 (stereo unspecified) then?
114

For `CCCn1c(-c2nonc2N)nc2ccccc21` then?
99.6

For `O=C(Nc1cccc(-c2cnc3ccccc3n2)c1)c1cccc(NC(=O)c2ccco2)c1` then?
98.6

For `COc1ccc(-c2[nH]ncc2-c2ccc3c(c2)OCCO3)c(O)c1` then?
107

For `Cn1c(Sc2ccc(Br)cc2)c(C=O)c2ccccc21` then?
108

For `Cc1nn(-c2ccccc2)c(N2CCCC2)c1/C=N/NC(=O)c1cc(-c2ccccc2)nc2ccccc12` then?
104

For `O=c1cc(-c2ccccc2Cl)oc2c([N+](=O)[O-])c(O)cc(O)c12` then?
101

For `Cc1cccc(C(=O)N[C@H](C(=O)Nc2nc3ccccc3[nH]2)C(C)C)c1` then?
101
